test system: Jurkat cells; experiment: Apoptosis assay (active Caspase 3/7 by FAM-DEVD-FMK probe, flow cytometry); assay type: cell-based; settings: Homo sapiens; pro-apoptotic effects, Jurkat cell line, 48 hours of treatment, +100µM zVAD; read-out: EC50 (+100µM zVAD)
PROPERTY: EC50 (mM)

* O=C(O)CCCc1ccccc1 [Example 4-PB, 4-Phenylbutyric acid, reference compound] | 10
* CC(NC(=O)CCCc1ccccc1)C(=O)O (centres unmarked) [Example 3, 2-(4-Phenyl-butyrylamino)-propionic acid] | 13

---

system: Jurkat cells; assay: Cell proliferation assay (dilution of fluorescent membrane marker, flow cytometry); format: cell-based; details: Homo sapiens, Jurkat, 48 h; read-out: IC50 (without zVAD)
PROPERTY: IC50 (mM)

P. CC(NC(=O)CCCc1ccccc1)C(=O)O (stereo not shown)
Q. C[C@H](NC(=O)CCCc1ccccc1)C(=O)OCCOC(=O)[C@@H](C)NC(=O)CCCc1ccccc1
# input Lower IC50: P or Q ? Respond with the label that goes with your answer.
# output P
(P: 3.2 mM, Q: 9 mM)
